All figures here come from ChEMBL document CHEMBL1154288.

TARGET: GABA A receptor alpha-5/beta-3/gamma-2 (Rattus norvegicus) (UniProt P18508+P19969+P63079)
ASSAY_METHOD_TEXT: Inverse agonist activity at rat GABA alpha-5-beta-3-gamma-2 receptor expressed in HEK293 cells by electrophysiology assay relative to GABA
Type: functional, cell-based
True means recorded Efficacy is -30% or above; False means it is below -30%.

As a guide, the following entries are already answered.
SMILES_RECORD: CCC(F)(F)c1ncn2c1Cn1ncnc1-c1cc(F)ccc1-2
TARGET: GABA A receptor alpha-5/beta-3/gamma-2 (Rattus norvegicus) (UniProt P18508+P19969+P63079)
CLASS: True

SMILES_RECORD: FC(F)c1ncn2c1Cn1ncnc1-c1cc(Cl)ccc1-2
TARGET: GABA A receptor alpha-5/beta-3/gamma-2 (Rattus norvegicus) (UniProt P18508+P19969+P63079)
CLASS: True

SMILES_RECORD: N#Cc1ccc2c(c1)-c1ncnn1Cc1c(Cl)ncn1-2
TARGET: GABA A receptor alpha-5/beta-3/gamma-2 (Rattus norvegicus) (UniProt P18508+P19969+P63079)
CLASS: True

SMILES_RECORD: c1ccc2c(c1)-c1ncnn1Cc1cncn1-2
TARGET: GABA A receptor alpha-5/beta-3/gamma-2 (Rattus norvegicus) (UniProt P18508+P19969+P63079)
CLASS: False

SMILES_RECORD: Cc1nc(-c2ncn3c2Cn2ncnc2-c2cc(F)ccc2-3)no1
TARGET: GABA A receptor alpha-5/beta-3/gamma-2 (Rattus norvegicus) (UniProt P18508+P19969+P63079)
CLASS: True

SMILES_RECORD: Cc1ccc2c(c1)-c1ncnn1Cc1c(Cl)ncn1-2
TARGET: GABA A receptor alpha-5/beta-3/gamma-2 (Rattus norvegicus) (UniProt P18508+P19969+P63079)
CLASS: False

Could you please find out whether Cc1ncn2c1Cn1ncnc1-c1cc(Br)ccc1-2 has Efficacy that meets -30% or exceeds it?
False

Tell me whether Efficacy is at least -30% here: Clc1ncn2c1Cn1ncnc1-c1cc(-n3ccnc3)ccc1-2
True

Could you tell me if the measured Efficacy of FC(F)c1ccc2c(c1)-c1ncnn1Cc1c(Cl)ncn1-2 reaches -30% or more?
False

Please tell me: is the compound Fc1ccc2c(c1)-c1ncnn1Cc1cncn1-2 at or over -30% in terms of Efficacy?
False

Does the compound Cc1ncn2c1Cn1ncnc1-c1cc(OC(F)(F)F)ccc1-2 have recorded Efficacy that is -30% or more?
False

Form field: Efficacy at least -30%? Entry: Cc1cccc(-c2ncn3c2Cn2ncnc2-c2cc(Cl)ccc2-3)n1
True

API: above_or_equal(metric=Efficacy, cutoff=-30%) for item Cc1ncn2c1Cn1ncnc1-c1cc(F)ccc1-2
False

Say whether CCOC(=O)c1ncn2c1Cn1ncnc1-c1cc(F)ccc1-2 shows Efficacy of -30% or more.
True

====

The reader will find reported logD values listed item by item below.
ASSAY_METHOD_TEXT: Lipophilicity, log D at pH 7.4
Type: physicochemical
MEASUREMENT_CONTEXT: buffer

Known logD results, listed for orientation:
SMILES_RECORD: FC(F)c1ncn2c1Cn1ncnc1-c1cc(Cl)ccc1-2
logD: 2
//
SMILES_RECORD: Clc1ccc2c(c1)-c1ncnn1Cc1c(Cl)ncn1-2
logD: 1.8
//
SMILES_RECORD: Cc1ncn2c1Cn1ncnc1-c1cc(Cl)ccc1-2
logD: 2
//
SMILES_RECORD: Cc1ncn2c1Cn1ncnc1-c1cc(Br)ccc1-2
logD: 1.6
//
SMILES_RECORD: Clc1ncn2c1Cn1ncnc1-c1cc(Br)ccc1-2
logD: 2.2

Next up:
Given the compound FC(F)c1ncn2c1Cn1ncnc1-c1cc(Br)ccc1-2 , write its reported logD.
1.9

====

ASSAY_METHOD_TEXT: Solubility by lypophlisation solubility assay
Format: physicochemical
Give 1.0 when the value for solubility is at least 20 µg/mL. Give 0.0 when it is less.

SMILES_RECORD: Cc1ncn2c1Cn1ncnc1-c1cc(Cl)ccc1-2
CLASS: 0.0
--
SMILES_RECORD: Cc1ncn2c1Cn1ncnc1-c1cc(Br)ccc1-2
CLASS: 1.0
--
SMILES_RECORD: Clc1ncn2c1Cn1ncnc1-c1cc(Br)ccc1-2
CLASS: 0.0
--
SMILES_RECORD: Clc1ccc2c(c1)-c1ncnn1Cc1c(Cl)ncn1-2
CLASS: 1.0
--
SMILES_RECORD: FC(F)c1ncn2c1Cn1ncnc1-c1cc(Cl)ccc1-2
CLASS: 1.0

Is solubility for FC(F)c1ncn2c1Cn1ncnc1-c1cc(Br)ccc1-2 at or above 20 µg/mL?
0.0

====

ASSAY_METHOD_TEXT: Oral bioavailability in rat
Type: ADME, organism-based
MEASUREMENT_CONTEXT: in vivo
bioavailability listing for selected compounds.
Provide the reading as a plain figure in %.

Record excerpt, results attached:
SMILES_RECORD: Cc1ncn2c1Cn1ncnc1-c1cc(Cl)ccc1-2
READING_UNIT: %
bioavailability: 52

SMILES_RECORD: FC(F)c1ncn2c1Cn1ncnc1-c1cc(Br)ccc1-2
READING_UNIT: %
bioavailability: 89

SMILES_RECORD: Clc1ncn2c1Cn1ncnc1-c1cc(Br)ccc1-2
READING_UNIT: %
bioavailability: 56

SMILES_RECORD: FC(F)c1ncn2c1Cn1ncnc1-c1cc(Cl)ccc1-2
READING_UNIT: %
bioavailability: 87

# return recorded bioavailability for entry Cc1ncn2c1Cn1ncnc1-c1cc(Br)ccc1-2
80

Indicate its recorded bioavailability; the compound in question is Clc1ccc2c(c1)-c1ncnn1Cc1c(Cl)ncn1-2
81

====

ASSAY_METHOD_TEXT: Half life in rat
Assay type: ADME, organism-based
MEASUREMENT_CONTEXT: in vivo
RECORDED_ENDPOINT: half-life
The reply should read as a number followed by its unit.

Sample answers from the record:
SMILES_RECORD: Cc1ncn2c1Cn1ncnc1-c1cc(Br)ccc1-2
RECORDED_ENDPOINT: half-life
EXPERIMENTAL_VALUE: 7.7 h
//
SMILES_RECORD: Clc1ccc2c(c1)-c1ncnn1Cc1c(Cl)ncn1-2
RECORDED_ENDPOINT: half-life
EXPERIMENTAL_VALUE: 0.6 h
//
SMILES_RECORD: FC(F)c1ncn2c1Cn1ncnc1-c1cc(Cl)ccc1-2
RECORDED_ENDPOINT: half-life
EXPERIMENTAL_VALUE: 0.9 h

In one line, give reported half-life of the entry Clc1ncn2c1Cn1ncnc1-c1cc(Br)ccc1-2 .
1.6 h

Identify the reported half-life for the following entry. FC(F)c1ncn2c1Cn1ncnc1-c1cc(Br)ccc1-2
4.9 h

Could you please provide reported half-life for Cc1ncn2c1Cn1ncnc1-c1cc(Cl)ccc1-2 ? Thanks!
3.4 h

====

System: HEK293
ASSAY_METHOD_TEXT: Selectivity ratio of Ki for cloned human GABA alpha-2-beta-3-gamma-2 receptor expressed in HEK293 cells to Ki for cloned human GABA alpha-5-beta-3-gamma-2 receptor expressed in HEK293 cells
Type: cell-based
Reported Ratio Ki maps to class as: bin 1 (below 10), bin 2 (10 to below 30), bin 3 (30 or more)

Solved entries:
SMILES_RECORD: Cc1ncn2c1Cn1ncnc1-c1c(Cl)cccc1-2
CLASS: bin 1
--
SMILES_RECORD: Clc1ncn2c1Cn1ncnc1-c1ccccc1-2
CLASS: bin 1
--
SMILES_RECORD: CC(=O)Nc1ccc2c(c1)-c1ncnn1Cc1c(Cl)ncn1-2
CLASS: bin 2

Entry FC(F)c1ccc2c(c1)-c1ncnn1Cc1c(Cl)ncn1-2 belongs to which category?
bin 3

# bin label for CCC(F)(F)c1ncn2c1Cn1ncnc1-c1cc(F)ccc1-2
bin 1

Assign a category based on measured Ratio Ki for COc1ccc2c(c1)-c1ncnn1Cc1c(C)ncn1-2 and give only the class name.
bin 3

====

TARGET: GABA A receptor alpha-5/beta-3/gamma-2 (Rattus norvegicus) (UniProt P18508+P19969+P63079)
ASSAY_METHOD_TEXT: Inverse agonist activity at rat GABA alpha-5-beta-3-gamma-2 receptor expressed in HEK293 cells by electrophysiology assay relative to GABA
Assay type: functional, cell-based
Recorded Efficacy for the following compounds

Example cases with answers are listed next.
SMILES_RECORD: Cc1ncn2c1Cn1ncnc1-c1ccccc1-2
Efficacy: -44%
//
SMILES_RECORD: CCC(=O)c1ncn2c1Cn1ncnc1-c1cc(Cl)ccc1-2
Efficacy: -38%
//
SMILES_RECORD: CCCc1ncn2c1Cn1ncnc1-c1cc(Cl)ccc1-2
Efficacy: -35%
//
SMILES_RECORD: C#CCNC(=O)c1ncn2c1Cn1ncnc1-c1cc(F)ccc1-2
Efficacy: -35%
//
SMILES_RECORD: Clc1ccc2c(c1)-c1ncnn1Cc1c(Cl)ncn1-2
Efficacy: -40
//
SMILES_RECORD: Cc1ncn2c1Cn1ncnc1-c1cc(Cl)ccc1-2
Efficacy: -41%

Tell me its Efficacy given Clc1ncn2c1Cn1ncnc1-c1cc(Br)ccc1-2 as the entry.
-48%

Identify Efficacy associated with the compound Clc1ncn2c1Cn1ncnc1-c1ccccc1-2
-41%

Provide only the value of recorded Efficacy for Clc1ncn2c1Cn1ncnc1-c1cc(-c3ccccc3)ccc1-2
8%

Given the compound N#Cc1ncn2c1Cn1ncnc1-c1cc(Cl)ccc1-2 , write its reported Efficacy.
-31%

Please list Efficacy recorded for the compound Clc1ccc2c(c1)-c1ncnn1Cc1c(C3CC3)ncn1-2
-21%
